TEST DETAILS: Rodent pharmacokinetic study
Type: in vivo
CONDITION DETAILS: plasma; Wistar/Male rat, 10 mg/kg, Oral; vehicle water (Ex. 8: 50% PEG 400)
ENDPOINT LABEL: AUC(0-t) (ng·h/mL)

COMPOUND	READOUT UNIT	OBSERVED
CN1CCC(Nc2cc(S(=O)(=O)c3c[nH]c4cc(Cl)ccc34)ccc2Cl)CC1.Cl	ng·h/mL	3810
COc1ccc(S(=O)(=O)c2cc(Br)ccc2OC)cc1NC1CCNCC1F.Cl (stereo not shown)	ng·h/mL	1520
COc1ccc(S(=O)(=O)c2cc(Br)ccc2OC)cc1NC1CCN(C)CC1.Cl	ng·h/mL	931
COc1ccc(S(=O)(=O)c2c[nH]c3cc(Cl)ccc23)cc1NC1CCN(C)CC1	ng·h/mL	1430
